Reference source: patent US12018011B2

Entries and their half-life at 1 μM values follow.
Test: Metabolic stability in mouse liver microsomes
Format: in vitro ADME
Conditions: CD-1 mouse liver microsomes 0.5 mg protein/mL, test compound 1 μM, 37° C.; read-out: T1/2 in MLM
Procedure: The metabolic stability of the compounds disclosed herein was determined by measuring half-life (T1/2) of the compounds in the presence of mouse liver microsomes (MLM) or human liver microsomes (BILM). Intermediate solution: 5 μL of compound and control stock solution (10 mM in dimethyl sulfoxide (DMSO)) were diluted with 495 μL of acetonitrile (ACN) (intermediate solution concentration: 100 μM, 99% ACN). […]

In: Can you look up the measured half-life at 1 μM of Cn1cncc1[C@@]1(O)c2ccc(C#N)c(c2)OCCc2cccc(c2)-c2cc(=O)n(C)c3ccc1cc23 [(S)-36] for me?
Out: 5 to 15 min

In: Can you look up the measured half-life at 1 μM of Cn1cnnc1[C@@]1(N)c2ccc(Cl)c(c2)COc2cccc(c2)-c2cc(=O)n(C)c3ccc1cc23 [(S)-51] for me?
Out: > 15 min

In: Field request: half-life at 1 μM | item: Cn1cncc1[C@@]1(N)c2ccc(Cl)c(c2)OCCc2cccc(c2)-c2cc(=O)n(C)c3ccc1cc23 [(S)-27]
Out: < 5 min

In: Which half-life at 1 μM reading was recorded for the compound Cn1cncc1[C@@]1(O)c2ccc(Cl)c(c2)OCCc2cccc(c2)-c2cc(=O)n(C3CC3)c3ccc1cc23 [(S)-29] ?
Out: < 5 min
